Exercise: for every item that follows, state its recorded Tm.
assay: melting temperature; fluorescence melt of hairpins on a sequencing array, two-state fit, raised by 9.35 °C to match UV melts; conditions: sodium 0.088 M
The reply should be a number in °C, with the unit left off.

Given GCAGTGCGAAAGCTCAGC ((.(.((....)).).)) , state its recorded Tm. 49.2

Now give it for GATCAGCCACTGATC ((((((...)))))) too. 48.6

Now give it for GACGCCGAAAGGCTCGTC ((((((....)))..))) too. 50

Now give it for GTCCCGCGAAAGCGCGAC (((.(((....))).))) too. 49.5

* * *

assay: melting temperature; fluorescence melt of hairpins on a sequencing array, two-state fit, raised by 9.35 °C to match UV melts; settings: sodium 0.088 M
value_type: Tm (°C)
The reply should be a number in °C, with the unit left off.

Given CGGTTGAAAAACCG (((((....))))) , state its recorded Tm. 56.2

Now give it for GCCGACGAAAGTCCAGGC ((((((....)))..))) too. 51.7

Now give it for GTGGAACGAAAGTTGCAC (((.(((....))).))) too. 56.5

Now give it for GATCGTCCTAACGATC ((((((....)))))) too. 55.5

Now give it for GATGGCGGAAACACCATC (((((.(....).))))) too. 47.2

Now give it for GGCTCCGGAAACGGAGTC (.(((((....))))).) too. 60.8

Now give it for GGGCGGACGAAAGTCCCC (((..(((....)))))) too. 50.6

Now give it for GCGAGGCGAAAGCTTAGC ((.(.((....)).).)) too. 56.9

Now give it for GGGCTCGAAAGAGGCCC ((((((....))).))) too. 69

Now give it for GAGCATGGAAACGTGCTC (((((.(....).))))) too. 52.9

Now give it for GCACAGCGAAAGCCGTGC ((((.((....)).)))) too. 65.6

Now give it for GCGTGAACGAAAGTTCGC (((..(((....)))))) too. 48.6

Now give it for GCCATCCGAAAGGACGGC (((.(((....))).))) too. 55.7

Now give it for GTACACGGAAACGTGTGC (.(((((....))))).) too. 56.2

Now give it for GGTCGCGAAAGCGAAACC ((((((....)))..))) too. 50

Now give it for GTAAGCCGAAAGGCATAC (((.(((....))).))) too. 46.6

Now give it for GATCAACCCGTTGATC ((((((....)))))) too. 53

Now give it for GATCCTCCCAGGATC ((((((...)))))) too. 55.7

Now give it for GCCCTCGAAAGAGCGGC ((((((....))).))) too. 55.7

* * *

Exercise: for every item that follows, state its recorded Tm.
experiment: melting temperature; fluorescence melt of hairpins on a sequencing array, two-state fit, raised by 9.35 °C to match UV melts; conditions: sodium 0.088 M
The reply should be a number in °C, with the unit left off.

Given GCTGCTCGAAAGAGGAGC (((.(((....))).))) , state its recorded Tm. 59.6

Now give it for GCCCCTCGAAAGAGGGC (((.(((....)))))) too. 61.5

Now give it for GTGGCGGGAAACCGCTAC ((.((((....)))).)) too. 58.3

Now give it for GCAACGCGAAAGCGAGGC ((..(((....)))..)) too. 59.9
